Target: T1, extracellular domain of human β-Klotho (sKLB) (human, UniProt Q86Z14 53-983)
T1 construct: Made in HEK293-EBNA cells; also called WT sKLB; not shown: remnant of the TEV protease cleavage site / four-Gly linker left after the Fc tag was cut off
T1 sequence: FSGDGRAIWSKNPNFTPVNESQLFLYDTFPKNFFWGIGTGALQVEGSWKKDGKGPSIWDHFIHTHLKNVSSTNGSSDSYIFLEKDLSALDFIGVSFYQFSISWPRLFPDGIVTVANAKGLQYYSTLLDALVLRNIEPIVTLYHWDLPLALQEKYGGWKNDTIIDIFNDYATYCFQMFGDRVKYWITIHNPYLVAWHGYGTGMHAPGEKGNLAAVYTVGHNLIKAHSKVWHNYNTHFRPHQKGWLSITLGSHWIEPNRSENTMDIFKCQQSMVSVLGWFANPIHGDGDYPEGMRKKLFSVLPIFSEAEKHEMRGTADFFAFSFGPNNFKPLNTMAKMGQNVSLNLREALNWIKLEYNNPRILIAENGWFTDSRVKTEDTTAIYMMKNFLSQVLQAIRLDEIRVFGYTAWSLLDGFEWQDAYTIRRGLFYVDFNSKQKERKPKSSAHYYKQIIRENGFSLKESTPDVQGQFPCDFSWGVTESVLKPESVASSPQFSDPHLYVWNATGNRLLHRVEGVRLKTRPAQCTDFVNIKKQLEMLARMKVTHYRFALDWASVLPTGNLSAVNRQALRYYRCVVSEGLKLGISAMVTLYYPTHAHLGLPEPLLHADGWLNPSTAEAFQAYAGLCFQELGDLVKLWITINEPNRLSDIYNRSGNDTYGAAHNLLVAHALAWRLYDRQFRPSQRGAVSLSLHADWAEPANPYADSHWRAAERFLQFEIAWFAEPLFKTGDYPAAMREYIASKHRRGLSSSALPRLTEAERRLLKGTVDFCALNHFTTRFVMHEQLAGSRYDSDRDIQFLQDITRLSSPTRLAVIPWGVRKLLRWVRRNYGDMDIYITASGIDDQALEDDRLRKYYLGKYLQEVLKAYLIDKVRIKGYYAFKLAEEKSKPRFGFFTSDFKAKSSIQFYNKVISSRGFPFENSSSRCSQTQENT
Test: quantitative binding studies, method not given
quantity name: Kd (nM)
Your answer should be a plain number; it is taken to be in nM.

Incoming: Give the measured Kd of LPEPPGILAPQPPDVGSSDPLSMVGGSQGRSPSYES (also called FGF21CT peptide) [FGF21CT synthetic peptide (C-terminal region of FGF21, residues 174-209 with P199G and A208E)] .
Outgoing: 43

Entry source: patent US20200131257A1
